Assay: Plasma stability, mouse plasma (Balb/c; Table 5 head CD-1 Mouse)
Format: in vitro ADME
Conditions: BALB/c, mouse, plasma, pH 7.4
Observation Type: half-life at 2 μM
Numeric answer plus unit only.

// sample CC(C)[N+](C)(CCOC(=O)C1c2ccccc2Oc2ccccc21)C(C)C [Propantheline, reference compound] , its half-life at 2 μM was 1.68 h

====

Assay: Hepatocyte stability, cynomolgus monkey
Type: in vitro ADME
Details: cynomolgus monkey, hepatocytes, 0.5 million cells/ml, read-out: CLint (L/hr/kg) (converted)
Counter-ions that a name gives are not always drawn.
Observation Type: CLint scaled at 2 μM

Before answering, review these 5 worked examples.
| Compound | Experimental Value |
| --- | --- |
| CCN(C)Cc1c(Cc2cccc(NS(=O)(=O)NC)c2Cl)c(=O)oc2cc(OC(=O)N(C)C)ccc12 [Compound 245] | 13.8 L/h/kg |
| CCN(C)Cc1c(Cc2cccc(NS(=O)(=O)NC)c2F)c(=O)oc2cc(OC(=O)N(C)C)c(F)cc12 [Compound 238] | 5.89 L/h/kg |
| CCS(=O)(=O)Nc1cccc(Cc2c(CN3CCNCC3)c3cc(Cl)c(OC(=O)N(C)C)cc3oc2=O)c1Cl [Compound 257, hydrochloride] | 1.88 L/h/kg |
| CNS(=O)(=O)Nc1cccc(Cc2c(CN3CCNCC3)c3cc(Cl)c(OC(=O)N(C)C)cc3oc2=O)c1Cl [Compound 256, hydrochloride] | 2.5 L/h/kg |
| CNS(=O)(=O)Nc1cccc(Cc2c(CN3CCNCC3)c3ccc(OC(=O)N(C)C)cc3oc2=O)c1Cl [Compound 246, hydrochloride] | 0.832 L/h/kg |

# next compound below
// sample CNS(=O)(=O)Nc1cccc(Cc2c(CN(C)C)c3ccc(OC(=O)N(C)C)cc3oc2=O)c1Cl [Compound 274] , its CLint scaled at 2 μM was 5.7 L/h/kg

====

Biological target: CYP2D6 (Homo sapiens)
Sequence (P10635 whole entry): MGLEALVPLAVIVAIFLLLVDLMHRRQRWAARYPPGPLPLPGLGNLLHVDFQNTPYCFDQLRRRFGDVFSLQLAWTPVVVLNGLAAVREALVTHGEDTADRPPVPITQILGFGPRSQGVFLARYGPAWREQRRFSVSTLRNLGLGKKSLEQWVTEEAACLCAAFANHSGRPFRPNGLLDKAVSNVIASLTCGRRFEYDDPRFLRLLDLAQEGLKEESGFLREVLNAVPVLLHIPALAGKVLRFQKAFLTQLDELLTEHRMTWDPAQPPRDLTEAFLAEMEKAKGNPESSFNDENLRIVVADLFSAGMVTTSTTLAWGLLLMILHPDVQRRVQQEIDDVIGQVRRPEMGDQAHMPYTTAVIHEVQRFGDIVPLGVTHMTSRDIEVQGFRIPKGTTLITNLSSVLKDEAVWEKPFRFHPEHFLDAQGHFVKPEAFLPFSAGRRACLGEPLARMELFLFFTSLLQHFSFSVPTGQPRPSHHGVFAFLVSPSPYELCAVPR
Assay: in vitro
Settings: microsomes, pH 7.4
Structures can show the parent of a compound that is named as a salt.
Observation Type: inhibition at 30 min, 10 µM (%)
Report the figure in % without appending any unit label.

Before answering, review these 4 worked examples.
| Molecule | inhibition at 30 min, 10 µM / % |
| --- | --- |
| CNS(=O)(=O)Nc1cccc(Cc2c(CN3CCNCC3)c3cc(Cl)c(OC(=O)N(C)C)cc3oc2=O)c1Cl [Compound 256, hydrochloride] | 7.1 |
| CNS(=O)(=O)Nc1cccc(Cc2c(CN3CCNCC3)c3ccc(OC(=O)N(C)C)cc3oc2=O)c1Cl [Compound 246, hydrochloride] | 5.1 |
| CCS(=O)(=O)Nc1cccc(Cc2c(CN3CCNCC3)c3cc(Cl)c(OC(=O)N(C)C)cc3oc2=O)c1Cl [Compound 257, hydrochloride] | 10.1 |
| CCN(C)Cc1c(Cc2cccc(NS(=O)(=O)NC)c2Cl)c(=O)oc2cc(OC(=O)N(C)C)ccc12 | 13.7 |

# next molecule below
// returns inhibition at 30 min, 10 µM for `CNS(=O)(=O)Nc1cccc(Cc2c(CN(C)C)c3ccc(OC(=O)N(C)C)cc3oc2=O)c1Cl` with CYP2D6 (Homo sapiens); value = 2.5

====

Overview of reported half-life at 2 μM across a group of molecules:
Experiment: Plasma stability, rat plasma (Wistar Han / wistar hannover; Table 5 head SD Rat)
Format: in vitro ADME
Details: pH 7.4; wistar hannover rat plasma, 2 μM, anti-coagulant K2-EDTA; read-out: T1/2
Counter-ions that a name gives are not always drawn.

Before answering, review these 5 worked examples.
| Molecule | half-life at 2 μM |
| --- | --- |
| CNS(=O)(=O)Nc1cccc(Cc2c(CN3CCNCC3)c3cc(Cl)c(OC(=O)N(C)C)cc3oc2=O)c1Cl [Compound 256, hydrochloride] | 179 h |
| CCN(C)Cc1c(Cc2cccc(NS(=O)(=O)NC)c2F)c(=O)oc2cc(OC(=O)N(C)C)c(F)cc12 | 29.8 h |
| CNS(=O)(=O)Nc1cccc(Cc2c(CN(C)C)c3ccc(OC(=O)N(C)C)cc3oc2=O)c1Cl | 42.3 h |
| CCS(=O)(=O)Nc1cccc(Cc2c(CN3CCNCC3)c3cc(Cl)c(OC(=O)N(C)C)cc3oc2=O)c1Cl [Compound 257, hydrochloride] | 16.9 h |
| CNS(=O)(=O)Nc1cccc(Cc2c(CN3CCNCC3)c3ccc(OC(=O)N(C)C)cc3oc2=O)c1Cl [Compound 246, hydrochloride] | > 2 h |

# next molecule below
// sample `CCN(C)Cc1c(Cc2cccc(NS(=O)(=O)NC)c2Cl)c(=O)oc2cc(OC(=O)N(C)C)ccc12` , its half-life at 2 μM was 32.2 h

====

Test system: phospho-ERK in A549 (KRAS G12S) cells
Assay: Cell-based pERK (pERK:tERK) in A549 cells
Conditions: 10 nM, 2 h; phospho- to total protein ratio normalized to DMSO control (Table 9)
Method: Media components, reagents and buffers for Western Blot: All cell culture media components were obtained from ThermoFisher Scientific. […] Laemmli sample loading 4× buffer (ThermoFisher Scientific, Cat No. NP0007). […] Materials and Methods: A549 or A375 cells were seeded in 6-well plates at an appropriate seeding density on day 0. […] Protein concentration of the lysate was determined using Bradford Reagent (analyzed using SpectraMax M2E) and diluted to 1 mg/mL or pERK or 1.5 mg/mL for pMEK analysis. […]
Overview of reported A549-pERK (10 nM, 2 h) across a group of compounds:
// keep it numeric: no unit symbol after the value

Before answering, review these 4 worked examples.
| Record Smiles | Experimental Value |
| --- | --- |
| CNS(=O)(=O)Nc1cccc(Cc2c(CN(C)C)c3ccc(OC(=O)N4CCC4)cc3oc2=O)c1F | 66.3 |
| CCS(=O)(=O)Nc1cccc(Cc2c(CN(C)C)c3cc(Cl)c(OC(=O)N(C)C)cc3oc2=O)c1F | 62.6 |
| CNS(=O)(=O)Nc1cccc(Cc2c(CNCc3ccncc3)c3ccc(OC(=O)N(C)C)cc3oc2=O)c1F | 96 |
| CNS(=O)(=O)Nc1cccc(Cc2c(CN(C)C3CC3)c3ccc(OC(=O)N(C)C)cc3oc2=O)c1F | 64.9 |

// returns A549-pERK (10 nM, 2 h) for `CNS(=O)(=O)Nc1cccc(Cc2c(CNCC#N)c3ccc(OC(=O)N(C)C)cc3oc2=O)c1F` with phospho-ERK in A549 (KRAS G12S) cells; value = 55.4

// returns A549-pERK (10 nM, 2 h) for `CNS(=O)(=O)Nc1cccc(Cc2c(CN(C)CC#N)c3ccc(OC(=O)N(C)C)cc3oc2=O)c1F` with phospho-ERK in A549 (KRAS G12S) cells; value = 63.8

// returns A549-pERK (10 nM, 2 h) for `CNS(=O)(=O)Nc1cccc(Cc2c(CNc3nccs3)c3ccc(OC(=O)N(C)C)cc3oc2=O)c1F` with phospho-ERK in A549 (KRAS G12S) cells; value = 93.5

====

Overview of reported A549-pERK (10 nM, 2 h) across a group of molecules:
Test system: phospho-ERK in A549 (KRAS G12S) cells
Assay: Cell-based pERK (pERK:tERK) in A549 cells
Settings: 10 nM, 2 h; phospho- to total protein ratio normalized to DMSO control (Table 9)
// keep it numeric: no unit symbol after the value

Before answering, review these 6 worked examples.
| Molecule | Experimental Value |
| --- | --- |
| CNS(=O)(=O)Nc1cccc(Cc2c(CN(C)c3ccccc3)c3ccc(OC(=O)N(C)C)cc3oc2=O)c1F [Compound 79] | 49.4 |
| CNS(=O)(=O)Nc1nccc(Cc2c(C)c3cc(C)c(OC(=O)N(C)C)cc3oc2=O)c1F [Compound 110] | 5.92 |
| CNS(=O)(=O)Nc1cccc(Cc2c(CN3CC(OC)C3)c3ccc(OC(=O)N(C)C)cc3oc2=O)c1F [Compound 74] | 75.3 |
| CCS(=O)(=O)Nc1cccc(Cc2c(CN3CCNCC3)c3cc(Cl)c(OC(=O)N(C)C)cc3oc2=O)c1F [Compound 147] | 21.7 |
| CNS(=O)(=O)Nc1cccc(Cc2c(CN(C)CC(C)C)c3ccc(OC(=O)N(C)C)cc3oc2=O)c1F [Compound 78] | 78.6 |
| CNS(=O)(=O)Nc1cccc(Cc2c(CN3CCN(S(C)(=O)=O)CC3)c3ccc(OC(=O)N(C)C)cc3oc2=O)c1F [Compound 68] | 68.9 |

# next molecule below
// sample CNS(=O)(=O)Nc1cccc(Cc2c(CC(=O)N3CC(OC)C3)c3ccc(OC(=O)N(C)C)cc3oc2=O)c1F [Compound 216] , its A549-pERK (10 nM, 2 h) was 89.5

====

Test: Plasma stability, human plasma (K2EDTA)
Assay type: in vitro ADME
Details: human plasma, 2 μM, anti-coagulant K2-EDTA, 120 min
Structures can show the parent of a compound that is named as a salt.
Observation Type: % Remaining at T120 (%)
Report the figure in % without appending any unit label.

// sample `CCCS(=O)(=O)Nc1cccc(Cc2c(CN3CCNCC3)c3cc(Cl)c(OC(=O)N(C)C)cc3oc2=O)c1F` , its % Remaining at T120 was 84.6

// sample `CCS(=O)(=O)Nc1cccc(Cc2c(CN(C)C)c3ccc(OC(=O)N(C)C)cc3oc2=O)c1F` , its % Remaining at T120 was 123.8

// sample `CNS(=O)(=O)Nc1cccc(Cc2c(CN(C)C)c3cc(F)c(OC(=O)N(C)C)cc3oc2=O)c1F` , its % Remaining at T120 was 112.1

// sample CCS(=O)(=O)Nc1cccc(Cc2c(CN3CCNCC3)c3cc(Cl)c(OC(=O)N(C)C)cc3oc2=O)c1Cl [Compound 257, hydrochloride] , its % Remaining at T120 was 96.3

// sample CNS(=O)(=O)Nc1cccc(Cc2c(CN3CCNCC3)c3cc(Cl)c(OC(=O)N(C)C)cc3oc2=O)c1Cl [Compound 256, hydrochloride] , its % Remaining at T120 was 84.8
